Kindly supply the reported growth inhibition values for the records listed here.
Test: NCI Yeast Anticancer Drug Screen. Data for the mec2-1 strain (AID 157)
Details: S. cerevisiae mec2-1 strain, at 5.0 µM (retest, dose inferred, filed as 0.5), hits give high values
This is part of a sample that, as a whole, favours compounds with a hit. Of some 79,000 tested, about 15% had one in any assay.
One number for each entry, in %.

Recorded growth inhibition, per entry:
Input: Fill in: growth inhibition of C[P+](c1ccccc1)(c1ccc(Cl)cc1)c1ccc(Cl)cc1 is ___
Output: -3

Input: O=C(Nc1ccc(C(F)(F)F)cc1[N+](=O)[O-])C(=O)C(C(=O)c1ccc2ccccc2c1)C1OC(=O)c2ccccc21 (stereo not given) ?
Output: 10

Input: CN(C)C(=O)Nc1ccc(Cc2ccc(NC(=O)N(C)C)cc2)cc1 ?
Output: -29

Input: O=C1CC(O)C=C1Nc1ccc(Cl)cc1 (stereo not given) ?
Output: -3

Could I get growth inhibition for every one of these entries?
1. CCCC/C=C(\CCCNCCCC)[Si](C)(C)C
2. COc1ccc(N=NC(C(=O)c2ccccc2)C(=O)c2ccccc2)cc1
3. COC(=O)NC1CCCCCCCCCCC1I (stereo not given)
4. CCOc1c(N=Nc2ccccc2OC)c(-c2ccccc2)nn1C(N)=S
5. CCCCSc1nc2c([nH]1)c(=S)n(C)c(=S)n2C

Output:
[49, -1, 14, 1, 20]

---

Kindly supply the reported growth inhibition values for the records listed here.
Test: NCI Yeast Anticancer Drug Screen. Data for the rad50 strain (AID 155);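 also: 0% = growth of vehicle-only cultures of the same strain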
Details: S. cerevisiae rad50 strain growth inhibition; at 5.0 µM (retest, dose inferred, filed as 0.5); hits give high values
This is part of a sample that, as a whole, favours compounds with a hit. Of some 79,000 tested, about 15% had one in any assay.
Numbers only, in %.

Input: Fill in: growth inhibition of Cc1ccc(-[n+]2cc([O-])on2)cc1 is ___
Output: -11

Input: CC(C)=NNc1ncnc2nc[nH]c12 ?
Output: 11

Input: CCCCOC(=O)C#CC(=O)OCCCC ?
Output: -144

Could I get growth inhibition for every one of these entries?
1. COC1=C(NC(C)=O)C(=O)c2nc(-c3nc(C(=O)O)c(C)c(-c4ccc(OC)c(OC)c4O)c3N)ccc2C1=O
2. CCCCCCCCCCCC(=O)N(CC)CC
3. O=C1NC(=S)S/C1=C\c1ccc(F)cc1
4. CCCCCCCCCC(=O)CC(=O)c1ccc(O)cc1O
5. [N-]=[N+]=NC1=CC(=O)c2cccc3cccc1c23
6. CCCCCc1cccc(CC(=O)OCC)n1
7. Nc1ncc2ccccc2c1-c1ccc(NC(=O)CCCl)cc1
8. C=CCOC(=O)C(O)C(CC)CCCCC (stereo not drawn)

Output:
59
-3
-4
33
45
-161
-1
25

Could I get growth inhibition for every one of these entries?
1. CC(C)C1=C(O)c2ccccc2C(=O)C1=O
2. CCC(C)NCCNc1cc(OC)cc2cccnc12 (stereo not drawn)

Output:
1: -9; 2: 10

---

Assay: NCI Yeast Anticancer Drug Screen. Data for the mlh1 rad18 strain (AID 175)
Settings: S. cerevisiae mlh1 rad18 strain growth inhibition; at 5.0 µM (retest, dose inferred, filed as 0.5); hits give high values
Compounds without any hit were thinned out: in the full panel of roughly 79,000, 15% have a hit. Active and inactive are the calls of the source. Cut-off read from the data, not from the text of the source: active = growth inhibition above about 70%; inactive = the rest.
Reported metric: growth inhibition

Recorded growth inhibition, per entry:
Input: Fill in: growth inhibition of CC(=O)OCC1OC(N2CCc3cc([N+](=O)[O-])ccc32)C(OC(C)=O)C(OC(C)=O)C1OC(C)=O (centres undefined) is ___
Output: 11% (inactive)

Input: CC(=O)N1C=C2CCC3c4ccccc4NC3C2CC1 (centres undefined) ?
Output: -7% (inactive)

Input: Clc1ccc(C2=CCN3CC=C(c4ccc(Cl)cc4)C23)cc1 ?
Output: 18% (inactive)

Input: COc1ccc2cc3c4cc(OC)c(OC)cc4ccn3c2c1 ?
Output: 12% (inactive)

Input: CC1CN(CCCN2c3ccccc3Sc3ccc(Cl)cc32)C(C)(C)C1 (centres undefined) ?
Output: 9% (inactive)

Input: O=C([O][Sb]([O]C(=O)C(Cl)(Cl)Cl)([c]1ccccc1)([c]1ccccc1)[c]1ccccc1)C(Cl)(Cl)Cl ?
Output: 3% (inactive)

Input: Cc1ccc(S(=O)(=O)NNc2nc(N(C)C)nc(N(C)C)n2)cc1 ?
Output: 2% (inactive)

Input: FC(F)(F)c1ccc(Cl)c(NC(=S)SC2CCCCC2)c1 ?
Output: 7% (inactive)

Input: CC1=NN(c2ccccc2)C(=O)C1N=Nc1cc(Cl)cc(S(=O)(=O)O)c1O (centres undefined) ?
Output: 52% (inactive)

Input: CSC(=S)OC1CC(n2cnc3c(NC(=O)c4ccccc4)ncnc32)OC1CO[Si](C)(C)C(C)(C)C (centres undefined) ?
Output: 0% (inactive)

Could I get growth inhibition for every one of these entries?
1. CC(C)C1=CC(=O)C2=C(CCC3C(C)(C(=O)O)CCC[C@]23C)C1=O (some centres undefined)
2. CCC[CH2][Sn]([CH2]CCC)([O]C(=O)c1cccc(F)c1F)[O]C(=O)c1cccc(F)c1F
3. CCCCCN(CCCCC)CCNc1ccc(C)c2sc3ccccc3c(=O)c12

Output:
21% (inactive)
67% (inactive)
9% (inactive)

Could I get growth inhibition for every one of these entries?
1. O=C1C=C(Cl)C(=O)C2=C1CCCC2
2. O=C1C(c2ccc([N+](=O)[O-])cc2)=C(Cl)C(=O)c2c(O)cccc21

Output:
1: 20% (inactive); 2: -14% (inactive)

Could I get growth inhibition for every one of these entries?
1. Cc1ccc(OS(=O)(=O)c2ccc(Br)cc2)cc1
2. CCCCCCCCCCCc1ccn[nH]1
3. CC(C)=NOc1ccc([N+](=O)[O-])cc1[N+](=O)[O-]
4. CCCCCCCCCCCC(=O)Oc1c(Cl)c(Cl)c(C#N)c(Cl)c1Cl
5. Clc1ccc(C2NC(c3ccccc3)c3c(ccc4ccccc34)O2)cc1 (centres undefined)

Output:
3% (inactive)
-3% (inactive)
5% (inactive)
5% (inactive)
27% (inactive)
